- System: the molecule itself
- Measurement Notes: cell-based or functional assay

- Protein: "PXP (SEQ ID NO: 81) (designed binder) MRGSHHHHHHGSGRGDSVDGSGSGSGSGSGSGAPQMLRELQETNAALQDVRELLRQQVKEITFLKNTVMESDASGSGSGSGSGSGSLDGSPAGSPTSTEEGTSESATPESGPGTSTEPSEGSAPGSPAGSPTSTEEGTSTEPSEGSAPGTSTEPSEGSAPGTSESATPESGPGSEPATSGSETPGSEPATSGSETPGSPAGSPTSTEEGTSESATPESGPGTSTEPSEGSAPLDGSGSGSGSGSGSGAPQMLRELQETNAALQDVRELLRQQVKEITFLKNTVMESDASGSGSGSGSGSGSLEGRGDSHHHHHHKLN"
  Strain crossover (G'' > G'), 37 C (% strain): 151
